# studyTarget: Adenosine receptor A3 (Homo sapiens, UniProt P0DMS8); further: assay procedure not described here
# Sequence (P0DMS8 whole entry): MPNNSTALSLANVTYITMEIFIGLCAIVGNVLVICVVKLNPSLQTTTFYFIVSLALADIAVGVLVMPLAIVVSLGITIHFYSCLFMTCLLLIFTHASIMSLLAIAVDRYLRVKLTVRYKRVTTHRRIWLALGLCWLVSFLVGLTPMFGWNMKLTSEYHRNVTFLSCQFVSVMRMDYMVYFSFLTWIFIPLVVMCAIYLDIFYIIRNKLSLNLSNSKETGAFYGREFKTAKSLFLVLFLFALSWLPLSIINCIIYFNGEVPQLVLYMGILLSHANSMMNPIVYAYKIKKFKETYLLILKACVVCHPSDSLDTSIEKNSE
parameterMeasured: AC50

Worked cases, AC50 given:
In [3]: df
Out[3]:
                                   compound  observedvalue
0  Oc1ccc2c(c1)[C@@]13CCCC[C@@]1(O)[C@@H](C2)N(CC1CCC1)CC3        > 30 µM
1  CC(C)(C)C(=O)OCC(=O)[C@H]1CC[C@H]2[C@@H]3CCC4=CC(=O)CC[C@]4(C)[C@H]3CC[C@]12C [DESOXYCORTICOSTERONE PIVALATE]        > 10 µM
2  CC(=O)SC[C@@H](C)C(=O)N1CCC[C@H]1C(=O)N[C@@H](Cc1ccccc1)C(=O)O        > 30 µM
3  CC1(C)S[C@@H]2[C@H](NC(=O)[C@H](N)c3ccccc3)C(=O)N2[C@H]1C(=O)OCOC(=O)[C@@H]1N2C(=O)C[C@H]2S(=O)(=O)C1(C)C        > 30 µM
4  CCN1CCCC1CNC(=O)c1cc(S(=O)(=O)CC)c(N)cc1OC (stereo not given) [AMISULPRIDE]        > 30 µM

query: Which AC50 value belongs to OC[C@H]1O[C@@](CO)(O[C@H]2O[C@H](CO)[C@@H](O)[C@H](O)[C@H]2O)[C@@H](O)[C@@H]1O ?
result: > 30 µM

query: Could you tell me which AC50 is on file for CC(N)C(O)c1ccccc1 (stereo not given) ?
result: > 30 µM

query: Entry CCOC(=O)c1cncn1[C@H](C)c1ccccc1 [ETOMIDATE] : reported AC50 = ?
result: > 10 µM
